system: COLO 205; test: NCI tumour cell line growth inhibition, 48 h
Calls of active or inactive are those of the source. No stated cut-off is given here; in the data, active = GI50 up to about 1.1 µM and inactive = higher.
Recorded GI50 for the following molecules
Parameter: GI50

>>> assay_result("O=C(O)CN(CC(=O)O)C1CCCCC1N1CC(=O)OC(=O)C1 (stereo not drawn)")
"> 100 µM (inactive)"
>>> assay_result("CC(C)C1OC(N)=C(C#N)C1(C#N)C#N (stereo not drawn)")
"18.2 µM (inactive)"
>>> assay_result("COc1c2ccoc2c(OC)c2oc(=O)ccc12")
"> 100 µM (inactive)"
>>> assay_result("C=C(C)C(=O)OC1C/C(CO)=C\\C(O)C/C(C)=C/C2OC(=O)C(=C)C21 (stereo not drawn)")
"17.1 µM (inactive)"
>>> assay_result("C=CCO[C@]1(CC=C)C(=O)C(=O)OC1C1COC(C)(C)O1 (stereo partly drawn)")
"20.5 µM (inactive)"
>>> assay_result("COC(=O)C1(O)c2ccccc2N=C2C(=O)c3ccccc3N21 (stereo not drawn)")
"> 100 µM (inactive)"
>>> assay_result("CCOC(=O)C(NCc1ccccc1)(NC(=O)c1ccccc1)C(F)(F)F (stereo not drawn)")
"> 100 µM (inactive)"
>>> assay_result("COc1ccc(C(=O)c2c(-c3ccccc3NC(=O)C(F)(F)F)[nH]c3ccccc23)cc1")
"4.05 µM (inactive)"
>>> assay_result("O=C1C(Cl)N(c2ccc(Cl)cc2Cl)C1c1c[nH]c2ccccc12 (stereo not drawn)")
"> 100 µM (inactive)"
>>> assay_result("CC(C)(O)/C=C\\P(C)(=O)c1ccccc1 (stereo not drawn)")
"> 100 µM (inactive)"
>>> assay_result("COc1cc(Br)cc2c1O[C@H]1C(=O)CC3CC21CCN3C (stereo partly drawn)")
"43.3 µM (inactive)"
>>> assay_result("COC(=O)c1cc2c(o1)Sc1ccccc1NC2=O")
"> 100 µM (inactive)"
>>> assay_result("c1ccc(-c2nc3ccccc3n3nnnc23)cc1")
"> 100 µM (inactive)"
>>> assay_result("CCCCCCCC(=O)OC(COC(=O)Cc1ccccc1)COC(=O)C(C)(C)C (stereo not drawn)")
"46.3 µM (inactive)"
>>> assay_result("O=C(Cc1ccc(Cl)cc1)Nc1ccc2oc(-c3ccccc3)nc2c1")
"> 100 µM (inactive)"
>>> assay_result("CC[N+]1(C)CCC(O)(/C=C/c2ccc(Cl)cc2)C(C(=O)/C=C/c2ccc(Cl)cc2)C1 (stereo not drawn)")
"3.55 µM (inactive)"
>>> assay_result("CCn1c(-c2ccc(/N=N/Nc3ccc(-c4n[nH]c(=S)n4CC)cc3)cc2)n[nH]c1=S")
"2.69 µM (inactive)"
>>> assay_result("COC(=O)c1c(O)ccc2c1c1c(n2Cc2ccc(Cl)cc2Cl)C(=O)c2ccccc2C1")
"45.7 µM (inactive)"
>>> assay_result("CC(C)(C)c1ccc(O)c(C(c2ccc([N+](=O)[O-])cc2)c2cc(C(C)(C)C)ccc2O)c1")
"2.5 µM (inactive)"
>>> assay_result("CN(C)CCNC(=O)c1cccc2c(NC(CCCNC(=N)N)C(=O)O)c3ccccc3nc12 (stereo not drawn)")
"6.22 µM (inactive)"
>>> assay_result("C[n+]1cn(C2=C([N-]S(=O)(=O)c3ccccc3)C(=O)c3ccccc3C2=O)c2ccccc21")
"2.85 µM (inactive)"
>>> assay_result("Cn1cc(NC(=O)c2cc(NC(=O)CCCCCCCC(=O)Nc3cc(C(=O)Nc4cc(C(=O)NCCC(=N)N)n(C)c4)n(C)c3)cn2C)cc1C(=O)NCCC(=N)N")
"13.2 µM (inactive)"
>>> assay_result("COC(=O)C1c2cc3c(c(O)c2CCC1(C)O)C(=O)c1c(O)cc2c(c1C3=O)OC1OC2(C)C(O)C(N(C)C)C1O (stereo not drawn)")
"0.36 µM (active)"
>>> assay_result("O=Cc1ccc2c(c1)CC1(C2)Cc2ccc(C=O)cc2C1")
"30.3 µM (inactive)"
>>> assay_result("C#CCC[C@@H]1O[C@@]1(C)CC/C=C(\\C)CC/C=C/C=O")
"26.7 µM (inactive)"
>>> assay_result("Nc1nccc(-c2c[nH]c3cc(Br)ccc23)n1")
"18.7 µM (inactive)"
>>> assay_result("COc1cc2c(cc1-c1coc3cc(OCC=C(C)C)ccc3c1=O)OCO2")
"29.4 µM (inactive)"
>>> assay_result("C[C@]12c3c4cc(NC(=O)C(=O)NCc5ccc(-c6ccccn6)nc5)cc3Oc3cc(NC(=O)C(=O)NCc5ccc(-c6ccccn6)nc5)cc(c31)OC1C=C(NC(=O)C(=O)NCc3ccc(-c5ccccn5)nc3)C=C(O4)C12 (stereo partly drawn)")
"23.1 µM (inactive)"

###

GI50 reference
test system: HT-29; assay: NCI tumour cell line growth inhibition, 48 h
The source made the active and inactive calls. Rule as the data show it: active = GI50 up to about 1.1 µM and inactive = higher.
Parameter: GI50

>>> assay_result("COc1cc(Br)cc2c1O[C@H]1C(=O)CC3CC21CCN3C (stereo not given in full)")
"42.2 µM (inactive)"
>>> assay_result("COc1cc(S(=O)(=O)N/N=C/C=C/c2ccccc2)c(OC)cc1NC(C)=O")
"9.62 µM (inactive)"
>>> assay_result("COCCOCCOCCC(=O)NC1CC2CCC1(C)C2(C)C (stereo not given)")
"> 100 µM (inactive)"
>>> assay_result("C=CCO[C@]1(CC=C)C(=O)C(=O)OC1C1COC(C)(C)O1 (stereo not given in full)")
"19.8 µM (inactive)"
>>> assay_result("O=c1[nH]nc(-c2ccccc2)n1/N=C/c1cccnc1")
"93.1 µM (inactive)"

###

system: M14; experiment: NCI tumour cell line growth inhibition, 48 h
Active and inactive are the calls of the source. No stated cut-off is given here; in the data, active = GI50 up to about 1.1 µM and inactive = higher.
Parameter: GI50

>>> assay_result("CC1CC[C@@]2(OC1)O[C@H]1[C@H](O)[C@H]3[C@@H]4CC[C@H]5C[C@@H](OC6OC(CO)C(OC7OC(CO)C(O)C(OC8OCC(O)C(O)C8O)C7OC7OC(CO)C(O)C(O)C7OC7OC(CO)C(O)C(O)C7O)C(O)C6O)[C@H](O)C[C@]5(C)[C@H]4CC[C@]3(C)[C@H]1[C@@H]2C (stereo not given in full)")
"> 10 µM (inactive)"
>>> assay_result("N#C/C(=C\\c1ccc(Cl)cc1)c1nc(-c2cc3ccccc3oc2=O)cs1")
"51.5 µM (inactive)"
>>> assay_result("O=C(CCCN1CCC2(CC1)NC(=O)c1ccccc1O2)c1ccc(F)cc1")
"87.7 µM (inactive)"
>>> assay_result("CC1(C)OC(C(C)(C)O)C(C(C)(C)O)O1 (stereo not given)")
"> 100 µM (inactive)"
>>> assay_result("CCOC(=O)C(NCc1ccccc1)(NC(=O)c1ccccc1)C(F)(F)F (stereo not given)")
"> 100 µM (inactive)"
>>> assay_result("COC(=O)C1c2cc3c(c(O)c2CCC1(C)O)C(=O)c1c(O)cc2c(c1C3=O)OC1OC2(C)C(O)C(N(C)C)C1O (stereo not given)")
"1.75 µM (inactive)"
>>> assay_result("CCN(CC)C(=S)SNCc1ccc(S(N)(=O)=O)cc1")
"10.7 µM (inactive)"
>>> assay_result("CN(C)CCn1cnc2sc3ccccc3c21")
"> 100 µM (inactive)"
>>> assay_result("CN(C)CCC1(C2=CCCC2)CC/C(=C\\c2ccc3c(c2)OCO3)C1=O (stereo not given)")
"14.7 µM (inactive)"
>>> assay_result("NS(=O)(=O)c1ccc(NC(=O)c2cccc3cc4ccccc4nc23)cc1")
"> 72.1 µM (inactive)"
>>> assay_result("C=CCN1C(=O)/C(=C/c2ccc(Cl)cc2)N=C1SC/C=C/C")
"31 µM (inactive)"
>>> assay_result("COc1cc(C(=O)CC2(O)C(=O)Nc3c(Cl)cc(Cl)cc32)ccc1O (stereo not given)")
"66.7 µM (inactive)"
>>> assay_result("NC(CCc1nc(-c2ccc(Cl)cc2)cs1)C(=O)O (stereo not given)")
"> 100 µM (inactive)"
>>> assay_result("O=C(O)c1ccc(Nc2nc3ccccc3nc2C(=O)O)cc1")
"> 100 µM (inactive)"
>>> assay_result("COc1ccc(C(=O)c2c(-c3ccccc3NC(=O)C(F)(F)F)[nH]c3ccccc23)cc1")
"14.3 µM (inactive)"
>>> assay_result("CC(=O)N(O)Cc1ccccc1")
"> 100 µM (inactive)"
>>> assay_result("O=C(O)CN(CC(=O)O)C1CCCCC1N1CC(=O)OC(=O)C1 (stereo not given)")
"> 100 µM (inactive)"
>>> assay_result("O=S(=O)(c1ccccc1)c1nccs1")
"> 100 µM (inactive)"
>>> assay_result("NC(=S)NN=C1Cc2ccccc2C1")
"> 100 µM (inactive)"
>>> assay_result("COc1ccc(OC(C(=O)O)c2ccccc2)c2c1CCCC2=O (stereo not given)")
"> 100 µM (inactive)"
>>> assay_result("Sc1nnc(-c2ccccc2Nc2ccccc2-c2nnc(S)n2-c2ccccc2)n1-c1ccccc1")
"40.8 µM (inactive)"
>>> assay_result("CC1(C23CC4CC(CC(C4)C2)C3)n2c(=O)n(-c3ccccc3)c(=O)n2C1(C)C12CC3CC(CC(C3)C1)C2 (stereo not given)")
"> 100 µM (inactive)"
>>> assay_result("CC(C)(C)OC(=O)NCCCCC1NC(=O)[C@@H]2Cc3c([nH]c4ccccc34)C(c3ccccc3)N2C1=O (stereo not given in full)")
"28.6 µM (inactive)"
>>> assay_result("CSc1nc(-c2ccccc2)[nH]c(=O)n1")
"> 100 µM (inactive)"
>>> assay_result("Cn1cnc(/C=C/C#N)c1")
"> 100 µM (inactive)"
>>> assay_result("O=C(O)c1ccc(/C=N\\N(CCO)C2=NCCN2)cc1")
"> 100 µM (inactive)"
>>> assay_result("CN(C)c1ccc(O[Si](Oc2ccc(N(C)C)cc2)(Oc2ccc(N(C)C)cc2)Oc2ccc(N(C)C)cc2)cc1")
"> 100 µM (inactive)"
>>> assay_result("CC(=O)NC(CCCN(Cc1ccccc1)C(=O)N(CCCl)N=O)C(=O)NCc1ccccc1 (stereo not given)")
"42.7 µM (inactive)"
>>> assay_result("CC(C)(C)OC(=O)CN1CCNCCN(CC(=O)OC(C)(C)C)CC1")
"> 100 µM (inactive)"
>>> assay_result("COC(=O)C1=C(OC(=O)c2ccccc2)C(C(=O)OC)[C@@]2(O)[C@@H](C(=O)OC)[C@H](C)C[C@@H]1[C@@H]2C(=O)OC (stereo not given in full)")
"28.3 µM (inactive)"
